For each entry below, report its soluble fraction (log2) value.
# assay text: soluble fraction after stress (log2 fold change); higher = more stays soluble; pooled small domains, quantitative proteomics;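 further: 20 min heating vs room temperature control held 20 min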
# condition label: stress: 75 degC

Previously resolved entries follow.
HMSKSVEQRRQQIVAWVKEHGQSQVEDLAVRFATSEVTIRKDLAALSQQGLLIRQFGGAVPVPA :: -0.982
HMPDPLYLINGKIVNKSDFNNIDPRSIQSIEVLKANKALEAFGNDGKNGVIKITLKSSNDQM :: -0.104
HMEKPTEITLSNRVSVQELAEKMYVSETDIIRTLFLDGRIININQVLDIDTAIRVGEQLGIKIKII :: -2.14
HMEHIDVSGRAFDVSVSRLKRARRLTMRIDTHKQLVKISAPLHVESSTIRAFLARNQNWLEQQVEKR :: -0.839

State the recorded soluble fraction (log2) for this entry: `HMNENFPYRLKEMVVVQSRTWPGINKPGGVGQVMKINPEAGTVNVKYVLGGSEKNIELKYVTSNDLNSK` -0.489

----------
# assay text: soluble fraction after stress (log2 fold change); higher = more stays soluble; pooled small domains, quantitative proteomics
# condition label: stress: 75 degC
recorded endpoint: soluble fraction (log2)

HMSENMSQDLAQWYRLQQALHPNLDAPELWATDLTSQQRTVRDQLIQQWAQEKRDSLWSEISGD :: -0.0639
HMTQLEVDLFERLITISGVGPRLALAVLSGLEPPDLLRAIQDSDIVRLQGIPGVGKKTAERISLELKDKLS :: -1.35
HMELPADLATVLSVDDIRAIALAEVPGSTITGVELEREEGVLVYKVKFNDGSYKLYDANTGELV :: 0.105

Look up soluble fraction (log2) for the entries below, preserving their order.
1. HMVRSKLEIVPVPEDAVVKIAGLKRLTYQAYQNEDVPYMVYKNGYEAQSGTVFMDTDKTLTVTLEESP
2. HMLGKNEAKEYKVAYGDIGKMPALIMGLVPLPKPPVVDERLRTLYVTATPEQHREIEAIMNRI
3. HMAVPLVRGTVTSSVGTVLLLSVGERDFFLSEGEEKDGVLLQSLSEKSAVVVVSGRAYTLSL
4. HMGGLIDQSIQEIIDKYSVPGKKIQKAQRLKIVAEMHTKGIFKMRGGVQQAAQALGVTRYTVYNDLEVMN
5. HMGQISLSVNAIPEKAEVILDGNSIGNTPIRKNTITPGSHMFEIEKKGYAPISYDIYVNPSKAINLDFFM
6. HMAGNNTATKEIAELLIAKGADVNAMNLSPPGREIGGMTPLDMAILGNRNEIADLLRKHGGRTQKELKAE
7. HMGMMTLGQRIAQYRKAMGISQEELGGRLGVSRQAVSKWETDAAAPDMENLLALAREFGVSVAELTETP

-0.0399
0.236
-4.42
-3.08
-0.974
0.262
-0.187

State the recorded soluble fraction (log2) for this entry: `HMVMTTVPEVLGMDIRTAASMLTGKNLKYDYDLVESDKPKDEVIEQDQAKGTEVPEGTVVKLKVSKGPA` 0.143

----------
# assay text: soluble fraction after stress (log2 fold change); higher = more stays soluble; pooled small domains, quantitative proteomics
# condition label: stress: 75 degC
For each entry below, report its soluble fraction (log2) value.
Answers are plain numbers.

Previously resolved entries follow.
HMSPLDSHLGRRIALRRQQLNTSAADLEKAISMVPGSVARFEAGRQSLNATQLFTLSRALDVPVLYFFEG :: -0.705
HMEIALNDKQILLFSNKLVHEPSFASKYSKVGESYDDFAIRISENLTIPDKVQEYLPYLEKVGFNI :: -0.622
HMYSMSAPMPGVILEIKVAPGDQVNKGDVVMVLEAMKMKNDLHAARTGTVESIDINSGEQVKYGQVLLRFV :: -0.225
HMKTILEKDQRLAKYISYLIKRKRLSPEQVIEHLKTDDHGYEKYPKSINTIYAAIDKGLIPSVTRQDM :: -0.509
HMHSEISGGSKDPFRFMPHLGVEDIHAETDRLSGSGVEFIREPDQESWGGWVATFKDPDGNILQLLQL :: 0.197
HMENLVPVVVATTNIEPRTQITDAMVKVEQIPALGRNESMLEDPALVVGGYATGKIYAGQSFIQPMVSK :: 0.351
HMKSTPMYATAIVNIRSKAGTDSEILGKLNPSEEISVISSENGWSKVSYNGKEAYISSNYLSNAKP :: -0.0974
HMNVDALIGTKGIVVQPIRPFAVGQVKVNGQVWSAVGKTPETDIEQGREVKVHAIEGVKLVVTPT :: 0.501

Look up soluble fraction (log2) for the entries below, preserving their order.
1. HMKAGEDAVQKAVLEAVAESAAAVADYKAGSERALNFIVGKVMKKTRGKASAAEVHRLVREEVDR
2. HMLNLNILTDKEKFIAKLISRGLSDSLIAKELYISISTVRSHVNSIYGKTNIKNRSHLASSFLYFELGNLL
3. HMLLLASTPAEQTIIQLLAEGWRDGDQLQQRSHLSAADFSTALTMLEVNGSIKPLGANHWALTH
4. HMNNLVGKTKVLKSNTNIYAYKTMSGKFYSYLPNTRVRVLQDLGYINYIEVIATKRRGYVYENVY
5. HMIQMRVKVPKNIAGGSLMGAHHFVKSALARTNPGGSTSNYKIQATDGTPLTLGDLTARQYDEVLIISG
6. HMAGTPAVVKWFNPTKGFGFVTPREAGSDALLHASVLAKQGKRWLQEGTVVEVVLEEGPKGLVVSEVLTIE
7. HMQEVILEKIQLTYLSADKLSKMAEQFSIPVKMYWVDENPMMLMVMGNESDIATFKKVLTQIDIPENKS

[0.0653, -0.204, -1.26, -0.234, -0.668, -0.457, -0.268]

Where do the numbers come from? From the domain aggregation screens of Martell et al. (2025).
